src = PubChem BioAssay AID2060513

- Test system: 299254-011-R-J1-PDC complex spheroids viability
- assay: Anticancer human tumor 299254-011-R-J1-PDC patient-derived melanoma cell line growth inhibition [GQUAD]
- test-parameters: second compound 3.16 µM; first compound 1 µM; stronger effect = lower value
// NB: equality with 60% counts as not met; only viability, T/C strictly below is met

Answered examples (3):
molecule	label
C=CCn1c(=O)c2cnc(Nc3ccc(N4CCN(C)CC4)cc3)nc2n1-c1cccc(C(C)(C)O)n1 + Cc1cnc(CNC(=O)c2c(=O)c3ccc(N4CCCN(C)CC4)nc3n3c2sc2ccccc23)cn1	met
O=C(c1cc(Cc2n[nH]c(=O)c3ccccc23)ccc1F)N1CCN(C(=O)C2CC2)CC1 + Cc1cnc(CNC(=O)c2c(=O)c3ccc(N4CCCN(C)CC4)nc3n3c2sc2ccccc23)cn1	not met
COc1ccc([C@@H](O)c2cc(-c3ncnc4cc(N5CCOCC5)ccc34)c(F)cc2Cl)nn1 + Cc1cnc(CNC(=O)c2c(=O)c3ccc(N4CCCN(C)CC4)nc3n3c2sc2ccccc23)cn1	not met

Asked: Record CC(=O)O[C@H]1C(=O)[C@@]2(C)[C@H]([C@H](OC(=O)c3ccccc3)[C@]3(O)C[C@H](OC(=O)[C@H](O)[C@@H](NC(=O)c4ccccc4)c4ccccc4)C(C)=C1C3(C)C)[C@]1(OC(C)=O)CO[C@@H]1C[C@@H]2O + Cc1[nH]c2ccc(F)cc2c1-c1nc2c3cccnc3c3ncccc3c2[nH]1 : is its viability, T/C strictly below 60%?
Given back: met

Asked: Record C#Cc1c(F)ccc2cc(O)cc(-c3ncc4c(N5CC6CCC(C5)N6)nc(OCC56CCCN5CC(F)C6)nc4c3F)c12 (stereo not given) + Cc1[nH]c2ccc(F)cc2c1-c1nc2c3cccnc3c3ncccc3c2[nH]1 : is its viability, T/C strictly below 60%?
Given back: not met

---

- Test system: 299254-011-R-J1-PDC complex spheroids viability
- assay: Anticancer human tumor 299254-011-R-J1-PDC cell line growth inhibition [GQUAD];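 further: spheroids exposed to the agents for seven days before readout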;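 on viability, T/C: percent viability relative to DMSO vehicle control wells = 100%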
- test-parameters: second compound 10 µM; first compound 0.00999 µM; stronger effect = lower value
measured-endpoint: viability, T/C (%)
Answer format: numeric, % implied, no suffix.

compound	tgt	unit	viability, T/C
CC[C@@]1(O)C(=O)OCc2c1cc1n(c2=O)Cc2cc3c(CN(C)C)c(O)ccc3nc2-1 + Cc1cnc(CNC(=O)c2c(=O)c3ccc(N4CCCN(C)CC4)nc3n3c2sc2ccccc23)cn1	299254-011-R-J1-PDC complex spheroids viability	%	49.5
Cn1ncnc1[C@H]1c2n[nH]c(=O)c3cc(F)cc(c23)N[C@@H]1c1ccc(F)cc1 + Cc1cnc(CNC(=O)c2c(=O)c3ccc(N4CCCN(C)CC4)nc3n3c2sc2ccccc23)cn1	299254-011-R-J1-PDC complex spheroids viability	%	105

Continue with the next compound.
Asked: Requested read-out: viability, T/C. Entry: CC[C@@]1(O)C(=O)OCc2c1cc1n(c2=O)Cc2cc3c(CN(C)C)c(O)ccc3nc2-1 + Cc1[nH]c2ccc(F)cc2c1-c1nc2c3cccnc3c3ncccc3c2[nH]1
Given back: 85.1

---

- Test system: 299254-011-R-J1-PDC complex spheroids viability
- assay: Anticancer human tumor 299254-011-R-J1-PDC cell line growth inhibition [GQUAD];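 further: spheroids exposed to the agents for seven days before readout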;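 on viability, T/C: percent viability relative to DMSO vehicle control wells = 100%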
- test-parameters: second compound 0.0316 µM; first compound 0.0999 µM; stronger effect = lower value
- Source text: DNA G-quadruplex Stabilizer Agents in Combinations in Complex Spheroids A high-throughput screen of multi-cell type tumor spheroids was designed to identify active combinations of DNA G-quadruplex stabilizer agents and targeted small molecules. […] Compounds. […] If the clinical Cmax for an agent had not been determined, the highest concentration tested was 10 microM. […]
measured-endpoint: viability, T/C (%)
Answer format: numeric, % implied, no suffix.

Below: 5 compounds and their reported viability, T/C.
compound	viability, T/C, %
Cc1[nH]c2ccccc2c1CCNCc1ccc(/C=C/C(=O)NO)cc1 + Cc1cnc(CNC(=O)c2c(=O)c3ccc(N4CCCN(C)CC4)nc3n3c2sc2ccccc23)cn1	65.2
Cc1[nH]c2ccccc2c1CCNCc1ccc(/C=C/C(=O)NO)cc1 + Cc1[nH]c2ccc(F)cc2c1-c1nc2c3cccnc3c3ncccc3c2[nH]1	56.3
CCc1c2c(nc3ccc(O)cc13)-c1cc3c(c(=O)n1C2)COC(=O)[C@]3(O)CC + Cc1[nH]c2ccc(F)cc2c1-c1nc2c3cccnc3c3ncccc3c2[nH]1	79.6
Cn1ncnc1[C@H]1c2n[nH]c(=O)c3cc(F)cc(c23)N[C@@H]1c1ccc(F)cc1 + Cc1[nH]c2ccc(F)cc2c1-c1nc2c3cccnc3c3ncccc3c2[nH]1	88.3
Cn1ncnc1[C@H]1c2n[nH]c(=O)c3cc(F)cc(c23)N[C@@H]1c1ccc(F)cc1 + Cc1cnc(CNC(=O)c2c(=O)c3ccc(N4CCCN(C)CC4)nc3n3c2sc2ccccc23)cn1	108

Asked: Requested read-out: viability, T/C. Entry: Cc1[nH]c2ccccc2c1CCNCc1ccc(/C=C/C(=O)NO)cc1 + CN(C)c1ccc(Nc2c3ccc(NC(=O)CCN4CCCC4)cc3nc3cc(NC(=O)CCN4CCCC4)ccc23)cc1
Given back: 74.8

Asked: Requested read-out: viability, T/C. Entry: CC[C@@]1(O)C(=O)OCc2c1cc1n(c2=O)Cc2cc3c(CN(C)C)c(O)ccc3nc2-1 + Cc1cnc(CNC(=O)c2c(=O)c3ccc(N4CCCN(C)CC4)nc3n3c2sc2ccccc23)cn1
Given back: 98.5

Asked: Requested read-out: viability, T/C. Entry: CC[C@@]1(O)C(=O)OCc2c1cc1n(c2=O)Cc2cc3c(CN(C)C)c(O)ccc3nc2-1 + CN(C)c1ccc(Nc2c3ccc(NC(=O)CCN4CCCC4)cc3nc3cc(NC(=O)CCN4CCCC4)ccc23)cc1
Given back: 112

Asked: Requested read-out: viability, T/C. Entry: Cn1ncnc1[C@H]1c2n[nH]c(=O)c3cc(F)cc(c23)N[C@@H]1c1ccc(F)cc1 + CN(C)c1ccc(Nc2c3ccc(NC(=O)CCN4CCCC4)cc3nc3cc(NC(=O)CCN4CCCC4)ccc23)cc1
Given back: 105

---

- Test system: 299254-011-R-J1-PDC complex spheroids viability
- assay: Anticancer human tumor 299254-011-R-J1-PDC cell line growth inhibition [GQUAD];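 further: spheroids exposed to the agents for seven days before readout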
- test-parameters: curve of first compound; second compound 0.1 µM
measured-endpoint: IC50

Below: 2 compounds and their reported IC50.
compound	IC50
C#Cc1c(F)ccc2cc(O)cc(-c3ncc4c(N5CC6CCC(C5)N6)nc(OCC56CCCN5CC(F)C6)nc4c3F)c12 (stereo not drawn) + Cc1[nH]c2ccc(F)cc2c1-c1nc2c3cccnc3c3ncccc3c2[nH]1	> 10000 nM
Cn1ncnc1[C@H]1c2n[nH]c(=O)c3cc(F)cc(c23)N[C@@H]1c1ccc(F)cc1 + Cc1[nH]c2ccc(F)cc2c1-c1nc2c3cccnc3c3ncccc3c2[nH]1	> 316 nM

Asked: Requested read-out: IC50. Entry: CC1COCCN1c1cc(C2(O)CC3CCC(C2)O3)c2cnn(-c3ccn[nH]3)c2n1 (stereo not drawn) + CN(C)c1ccc(Nc2c3ccc(NC(=O)CCN4CCCC4)cc3nc3cc(NC(=O)CCN4CCCC4)ccc23)cc1
Given back: 99.8 nM

---

- System: 299254-011-R-J1-PDC complex spheroids viability
- assay: Anticancer human tumor 299254-011-R-J1-PDC cell line growth inhibition [GQUAD];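 further: spheroids exposed to the agents for seven days before readout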;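 on viability, T/C: percent viability relative to DMSO vehicle control wells = 100%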
- test-parameters: second compound 0.316 µM; first compound 0.0316 µM; stronger effect = lower value
viability, T/C for assorted molecules

Below: 2 molecules and their reported viability, T/C.
molecule	test-result
CC[C@@]1(O)C(=O)OCc2c1cc1n(c2=O)Cc2cc3c(CN(C)C)c(O)ccc3nc2-1 + Cc1cnc(CNC(=O)c2c(=O)c3ccc(N4CCCN(C)CC4)nc3n3c2sc2ccccc23)cn1	84.9%
CCc1c2c(nc3ccc(O)cc13)-c1cc3c(c(=O)n1C2)COC(=O)[C@]3(O)CC + Cc1[nH]c2ccc(F)cc2c1-c1nc2c3cccnc3c3ncccc3c2[nH]1	84.2%

Continue with the next molecule.
Asked: Requested read-out: viability, T/C. Entry: C#Cc1c(F)ccc2cc(O)cc(-c3ncc4c(N5CC6CCC(C5)N6)nc(OCC56CCCN5CC(F)C6)nc4c3F)c12 (stereo not drawn) + CN(C)c1ccc(Nc2c3ccc(NC(=O)CCN4CCCC4)cc3nc3cc(NC(=O)CCN4CCCC4)ccc23)cc1
Given back: 113%

---

viability, T/C for assorted molecules
- System: 299254-011-R-J1-PDC complex spheroids viability
- assay: Anticancer human tumor 299254-011-R-J1-PDC cell line growth inhibition [GQUAD];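 further: spheroids exposed to the agents for seven days before readout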;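 on viability, T/C: percent viability relative to DMSO vehicle control wells = 100%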
- test-parameters: second compound 3.16 µM; first compound 1 µM; stronger effect = lower value
Answer format: numeric, % implied, no suffix.

Below: 3 molecules and their reported viability, T/C.
molecule	test-result
CC(C)(O)C1CCC(Nc2ccc3ncc(-c4cccc(C(F)(F)F)c4)n3n2)CC1 (stereo not given) + Cc1[nH]c2ccc(F)cc2c1-c1nc2c3cccnc3c3ncccc3c2[nH]1	88
O=C(c1cc(Cc2n[nH]c(=O)c3ccccc23)ccc1F)N1CCN(C(=O)C2CC2)CC1 + CN(C)c1ccc(Nc2c3ccc(NC(=O)CCN4CCCC4)cc3nc3cc(NC(=O)CCN4CCCC4)ccc23)cc1	91.1
COc1ccc([C@@H](O)c2cc(-c3ncnc4cc(N5CCOCC5)ccc34)c(F)cc2Cl)nn1 + CN(C)c1ccc(Nc2c3ccc(NC(=O)CCN4CCCC4)cc3nc3cc(NC(=O)CCN4CCCC4)ccc23)cc1	93.1

Asked: Requested read-out: viability, T/C. Entry: CC1COCCN1c1cc(-c2ccnn2C)c2ccnc(-c3ccn[nH]3)c2n1 (stereo not given) + Cc1cnc(CNC(=O)c2c(=O)c3ccc(N4CCCN(C)CC4)nc3n3c2sc2ccccc23)cn1
Given back: 13.4

Asked: Requested read-out: viability, T/C. Entry: COc1ncnc(C2CC2)c1-c1ncc2cnn(Cc3ccc(-c4nc(C(F)(F)F)cn4C(C)C)cc3)c2n1 + Cc1cnc(CNC(=O)c2c(=O)c3ccc(N4CCCN(C)CC4)nc3n3c2sc2ccccc23)cn1
Given back: 70.9
